The measurements presented in this section are drawn from patent US20180105492A1.

A collection of compounds and their measured percent protection against toxin-induced cell death at 1 µM
test system: SH-SY5Y cells; assay: Neuroprotection against rotenone/oligomycin A, pre-incubation model, MTT; assay type: cell-based; conditions: Homo sapiens, compound 1 μM pre-incubation 24 h, then Rot/Olig (30/10 μM)
Give the value, in units of %, as a plain number.

Please review the following examples before continuing.
CC(=O)NCCc1c[nH]c2ccc(OC(=O)/C=C/c3ccc(C(F)(F)F)cc3)cc12 :: 37.5
COc1ccc2[nH]cc(CCNC(C)=O)c2c1 [Melatonin, reference compound] :: 31.6
CC(=O)NCCc1c[nH]c2ccc(OC(=O)/C=C/c3ccc([N+](=O)[O-])cc3)cc12 :: 23

Item under review: "CC(=O)NCCc1c[nH]c2ccc(OC(=O)/C=C/c3ccc(F)cc3)cc12" . Reported percent protection against toxin-induced cell death at 1 µM? 21.5
